Assay: qHTS profiling of the MIPE4 collection as inhibitors of Plasmodium falciparum (DD2) proliferation (Rep 2) (AID 743346)
Settings: P. falciparum Dd2 in erythrocytes, SYBR Green DNA, 72 h; at 28.5 µM unless noted
Protocol: Plasmodium falciparum is a virulent malarial parasite that kills 1-2 million people worldwide each year. […] Because mature erythrocytes lack DNA, only Plasmodium-derived DNA is detected. The SYBR Green viability assay was adapted from a method described previously (Plouffe et al., 2008). […] The following morning, fluorescence intensity at 485(14) nm excitation and 535(25) nm emission wavelengths was measured on an EnVision (Perkin Elmer) plate reader. […]
Measured endpoint: parasite growth, % of control (lower = inhibition) (%)
Give bare numbers, in %.

Some solved cases for reference:
CCCCCCCCc1ccc(CCC(N)(CO)CO)cc1 ... 24.2
C=C1C(=CC=C2CCC[C@]3(C)[C@@H]([C@H](C)CCCC(C)(C)O)CC[C@@H]23)C[C@@H](O)C[C@@H]1O ... 22.4
CCCCCCCCCCCC(CC1OC(=O)C1CCCCCC)OC(=O)C(CC(C)C)NC=O (stereo not drawn) ... 17
Cc1cc(Nc2ncc3c(n2)N(C)C(=O)N(c2cc(NC(=O)c4cccc(C(F)(F)F)c4)ccc2C)C3)n(C)n1 ... 15.8
Cn1cc(C=CC(=O)c2cccc(F)c2)cc1C=CC(=O)NO ... 56.3

Provide each entry's parasite growth, % of control (lower = inhibition) from the list below.
1. OCC(O)C(O)C(O)CO (stereo not drawn)
2. O=C(C=CC#Cc1cccc(NS(=O)(=O)c2ccccc2)c1)NO

[114, 8.22]
